system: UniProt:P09917
Sequence (P09917 1-674): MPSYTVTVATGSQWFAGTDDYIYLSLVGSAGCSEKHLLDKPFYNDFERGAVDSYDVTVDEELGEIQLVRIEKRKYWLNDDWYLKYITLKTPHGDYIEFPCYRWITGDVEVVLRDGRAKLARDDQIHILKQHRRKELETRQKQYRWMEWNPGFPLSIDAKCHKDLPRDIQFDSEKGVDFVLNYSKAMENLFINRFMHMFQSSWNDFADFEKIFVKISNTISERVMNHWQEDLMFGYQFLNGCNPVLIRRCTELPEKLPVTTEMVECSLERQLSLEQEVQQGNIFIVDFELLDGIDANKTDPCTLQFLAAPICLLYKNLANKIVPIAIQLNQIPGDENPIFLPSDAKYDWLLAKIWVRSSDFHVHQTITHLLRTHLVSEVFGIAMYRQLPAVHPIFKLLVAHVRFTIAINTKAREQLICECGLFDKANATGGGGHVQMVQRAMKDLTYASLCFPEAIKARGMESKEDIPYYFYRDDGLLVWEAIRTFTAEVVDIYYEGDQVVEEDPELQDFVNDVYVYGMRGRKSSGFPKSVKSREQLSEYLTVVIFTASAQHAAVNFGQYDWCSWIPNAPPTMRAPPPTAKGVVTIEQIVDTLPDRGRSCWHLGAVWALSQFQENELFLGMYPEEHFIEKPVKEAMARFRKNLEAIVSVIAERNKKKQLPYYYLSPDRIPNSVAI
assayText: 5-LOX product formation in human activated PMNL (A23187)
Type: cell-based
Parameters: Freshly isolated PMNL (5 × 10^6) suspended in PBS pH 7.4 with 1 mg/mL glucose were preincubated with the test compounds; endogenous in cells; host or cells: human PMNL from donor blood
settings: 10 μM; human activated PMNL; read-out: 5-LOX residual activity in PMNL (%) at 10 μM
Entries and their remaining activity at 10 µM values follow.
Express it in %; write the number only.

Would you please look over these solved cases?
COC(=O)CCCn1ccc2cc(NC(=O)NCC34C[C@H]5C[C@@H](C3)C[C@@H](C4)C5)ccc21    30.1
O=C(Nc1ccc2c(c1)CCN2Cc1ccc(F)cc1)C12C[C@H]3C[C@@H](C1)C[C@@H](C2)C3    53.2
O=C(NCC12C[C@H]3C[C@@H](C1)C[C@@H](C2)C3)Nc1ccc2c(ccn2-c2ccc(F)cc2)c1    80.9
O=C(NCc1cccc2ccccc12)Nc1ccc2c(c1)CCN2Cc1ccc(F)cc1    56.3

Now for a further compound.
// lookup remaining activity at 10 µM | system=UniProt:P09917 | key= `NCc1ccc(Cn2ccc3cc(NC(=O)NCC45C[C@H]6C[C@@H](C4)C[C@@H](C5)C6)ccc32)cc1`
6.6

----------
system: UniProt P09917
assayText: 5-LOX product formation in human activated PMNL (A23187)
Format: cell-based
Parameters: Freshly isolated PMNL (5 × 10^6) suspended in PBS pH 7.4 with 1 mg/mL glucose were preincubated with the test compounds; endogenous in cells; host or cells: human PMNL from donor blood
settings: 10 μM; human activated PMNL; read-out: 5-LOX residual activity in PMNL (%) at 10 μM
Grouping key: remaining activity at 10 µM. Bins: band A: < 50%; band B: ≥ 50% and < 70%; band C: ≥ 70%

Examples with answers:
O=C(NCC12C[C@H]3C[C@@H](C1)C[C@@H](C2)C3)Nc1ccc2c(c1)c1ccccc1n2Cc1ccc(F)cc1    band C
O=C(Nc1ccc2c(c1)CCN2Cc1ccc(F)cc1)NC12C[C@H]3C[C@@H](C1)C[C@@H](C2)C3    band A
O=C(NCC12C[C@H]3C[C@@H](C1)C[C@@H](C2)C3)Nc1ccc2c(c1)CCN2Cc1ccc(F)cc1    band C
O=C(NCC12C[C@H]3C[C@@H](C1)C[C@@H](C2)C3)Nc1ccc2c(ccn2CCc2ccc(F)cc2)c1    band B
NCCCn1ccc2cc(NC(=O)NCC34CC5CC(CC(C5)C3)C4)ccc21    band B

Bin this entry: `CC1(C)C2CC[C@@]1(CS(=O)(=O)Nc1ccc3c(c1)CCN3Cc1ccc(F)cc1)C(=O)C2`
band A

Thanks! And `O=C(NCC12C[C@H]3C[C@@H](C1)C[C@@H](C2)C3)Nc1ccc2c(ccn2Cc2ccc(C(=O)O)cc2)c1` ?
band A

Thanks! And `COC(=O)c1ccc(Cn2ccc3cc(NC(=O)NCC45C[C@H]6C[C@@H](C4)C[C@@H](C5)C6)ccc32)cc1` ?
band B

Thanks! And `O=C(NCC12C[C@H]3C[C@@H](C1)C[C@@H](C2)C3)Nc1ccc2c(ccn2C(=O)c2ccc(F)cc2)c1` ?
band B

----------
system: Human recombinant sEH (Homo sapiens, UniProt P34913)
Sequence (P34913 whole entry): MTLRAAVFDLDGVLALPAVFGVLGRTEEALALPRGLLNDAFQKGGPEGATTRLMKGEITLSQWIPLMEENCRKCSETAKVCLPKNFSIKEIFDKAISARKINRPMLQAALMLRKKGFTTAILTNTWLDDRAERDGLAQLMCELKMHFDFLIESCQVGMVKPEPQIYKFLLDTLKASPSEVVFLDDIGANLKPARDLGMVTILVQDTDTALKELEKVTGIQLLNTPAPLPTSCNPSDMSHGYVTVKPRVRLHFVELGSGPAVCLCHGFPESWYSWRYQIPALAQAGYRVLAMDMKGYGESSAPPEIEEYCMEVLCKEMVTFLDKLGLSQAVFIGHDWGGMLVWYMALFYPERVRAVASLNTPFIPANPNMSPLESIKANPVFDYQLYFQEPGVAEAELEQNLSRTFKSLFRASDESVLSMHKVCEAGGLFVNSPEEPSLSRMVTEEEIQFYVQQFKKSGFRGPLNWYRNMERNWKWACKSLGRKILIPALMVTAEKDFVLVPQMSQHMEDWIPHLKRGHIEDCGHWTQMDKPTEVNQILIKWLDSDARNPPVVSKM
assayText: Cell-free sEH activity (PHOME fluorescence)
settings: human isolated sEH
Entries and their IC50 values follow.
Remember to follow the number with its unit.

O=C(Nc1ccc2c(ccn2Cc2ccc(F)cc2)c1)NC12C[C@H]3C[C@@H](C1)C[C@@H](C2)C3    13.4 nM

Look up IC50 for this molecule: `O=C(NCC12C[C@H]3C[C@@H](C1)C[C@@H](C2)C3)Nc1ccc2c(ccn2Cc2ccc(C(=O)O)cc2)c1`
15.1 nM

Thanks! And `NCc1ccc(Cn2ccc3cc(NC(=O)NCC45C[C@H]6C[C@@H](C4)C[C@@H](C5)C6)ccc32)cc1` ?
14.9 nM

Thanks! And `O=C(Nc1ccc2c(c1)CCN2Cc1ccc(F)cc1)NC12C[C@H]3C[C@@H](C1)C[C@@H](C2)C3` ?
7.22 nM

----------
assayText: In vivo pharmacokinetic profile in mice after i.p. administration
settings: mouse, plasma, ip, 10 mg/kg i.p., single dose
assayReadout: Tmax at 24 h

Look up Tmax at 24 h for this molecule: CC(C)c1ccc(Cn2ccc3cc(NC(=O)NCC45C[C@H]6C[C@@H](C4)C[C@@H](C5)C6)ccc32)cc1 [Compound 28]
2 h

----------
Entries and their mouse plasma stability values follow.
assayText: Mouse plasma stability
Type: in vitro ADME
settings: 1.0 h; 37 °C; 5 μM
Express it in %; write the number only.

O=C(NCC12C[C@H]3C[C@@H](C1)C[C@@H](C2)C3)Nc1ccc2c(ccn2C(=O)c2ccc(F)cc2)c1 [Compound 36]    98.2
O=C(Nc1ccc2c(c1)CCN2Cc1ccc(F)cc1)NC12C[C@H]3C[C@@H](C1)C[C@@H](C2)C3 [Compound 6]    97.3
O=C(NCC12C[C@H]3C[C@@H](C1)C[C@@H](C2)C3)Nc1ccc2c(ccn2Cc2ccc(F)cc2)c1 [Compound 27]    100.3
CC(C)c1ccc(Cn2ccc3cc(NC(=O)NCC45C[C@H]6C[C@@H](C4)C[C@@H](C5)C6)ccc32)cc1 [Compound 28]    98.4

Now for a further compound.
Look up mouse plasma stability for this compound: O=C(NCC12C[C@H]3C[C@@H](C1)C[C@@H](C2)C3)Nc1ccc2c(ccn2CCc2ccc(F)cc2)c1 [Compound 30]
96.2

----------
system: Human recombinant sEH (Homo sapiens, UniProt P34913)
assayText: Cell-free sEH activity (PHOME fluorescence)
settings: human isolated sEH
Entries and their pIC50 values follow.
// scale note: pIC50 = -log10(conc_M); give the bare number

Would you please look over these solved cases?
O=C(NCC12C[C@H]3C[C@@H](C1)C[C@@H](C2)C3)Nc1ccc2c(ccn2C(=O)c2ccc(F)cc2)c1    8.59
O=C(O)CCCn1ccc2cc(NC(=O)NCC34C[C@H]5C[C@@H](C3)C[C@@H](C4)C5)ccc21    7.27
NCCCn1ccc2cc(NC(=O)NCC34CC5CC(CC(C5)C3)C4)ccc21    7.57
O=C(NCC12C[C@H]3C[C@@H](C1)C[C@@H](C2)C3)Nc1ccc2c(c1)CCN2Cc1ccc(C(=O)O)cc1    7.62
O=C(NCc1cccc2ccccc12)Nc1ccc2c(c1)CCN2Cc1ccc(F)cc1    7.44
CC1(C)C2CC[C@@]1(CS(=O)(=O)Nc1ccc3c(c1)CCN3Cc1ccc(F)cc1)C(=O)C2    5.74
O=C(NCC12C[C@H]3C[C@@H](C1)C[C@@H](C2)C3)Nc1ccc2c(ccn2-c2ccc(F)cc2)c1    8.36
COC(=O)CCCn1ccc2cc(NC(=O)NCC34C[C@H]5C[C@@H](C3)C[C@@H](C4)C5)ccc21    7.67
CC(C)c1ccc(Cn2ccc3cc(NC(=O)NCC45C[C@H]6C[C@@H](C4)C[C@@H](C5)C6)ccc32)cc1    8.70
O=C(NCC12C[C@H]3C[C@@H](C1)C[C@@H](C2)C3)Nc1ccc2c(c1)CCN2Cc1ccc(F)cc1    7.95

// lookup pIC50 | system=Human recombinant sEH (Homo sapiens, UniProt P34913) | key= `O=C(NCC12C[C@H]3C[C@@H](C1)C[C@@H](C2)C3)Nc1ccc2c(c1)c1ccccc1n2Cc1ccc(F)cc1`
7.70
